Test system: HL-60
assay_protocol: Cytotoxicity against human HL60 cells assessed as growth inhibition by WST-8 assay
Assay type: functional
value_kind: GI50 (µM)
Write the answer as a number in µM, unit excluded.

## Task Consider the compound CC(C)c1cc2c(cc1O)[C@@]1(C)CCCC(C)(C)C1=CC2=O and give its measured GI50.
## Result 92.8

## Task Consider the compound CC(C)C1=C(O)C(=O)C2=C(CC[C@H]3C(C)(C)CCC[C@]23C)C1=O and give its measured GI50.
## Result 36.3

## Task Consider the compound CC(C)c1cc2c(cc1O)[C@@]1(C)CCCC(C)(C)C1=C(O)C2=O and give its measured GI50.
## Result 11.5

## Task Consider the compound CC(C)c1cc2c(cc1O)[C@@]1(C)CCCC(C)(C)[C@@H]1CC2O (stereo not given in full) and give its measured GI50.
## Result 75.2
